Just for reference, patent EP4725969A1 is where these values come from.

target: T1, recombinant human HER2 extracellular domain protein (human, UniProt P04626 23-652); assay: BLI, Protein A capture
T1 construct: range 23-652; Range is printed for the immunogen/panning protein; also called ErbB2; recombinant HER2 protein
recorded metric: Kd (nM)
Report as a plain number; the unit nM is understood.

binder	unit string	reported
2126-Hu-L12 (antibody, IgG1, V domains shown, IgG1/Cκ) VH: QVQLVQSGSELKKPGASVKVSCKASGYTFTDYSMHWVRQAPGQGLEWMGWINTETGEPTYADDFKGRFVFSLDTSVSTAYLQISSLKAEDTAVYFCVRVGRYDYAMDYWGQGTTVTVSS VL: DIQMTQSPSSLSASVGDRVTITCKASQDVYTAVAWYQQKPGKAPKLLINSASSRYTGVPSRFSGSGSGTDFTLTISSLQPEDFATYYCQQHYSTPPTFGGGTKVEIK	nM	6.13
2126-Hu-H24 (antibody, IgG1, V domains shown, IgG1/Cκ) VH: QVQLVQSGSELKKPGASVKVSCKASGYTFTDYAMHWVRQAPGQGLEWMGWINTETGEPTYADDFKGRFVFSLDTSVSTAYLQISSLKAEDTAVYFCVRVGRYDYAMDYWGQGTTVTVSS VL: DIQMTQSPSSLSASVGDRVTITCKASQDVYTAVAWYQQKPGKAPKLLINSASYRYTGVPSRFSGSGSGTDFTLTISSLQPEDFATYYCQQHYSTPPTFGGGTKVEIK	nM	7.7
2126-Hu-L17 (antibody, IgG1, V domains shown, IgG1/Cκ) VH: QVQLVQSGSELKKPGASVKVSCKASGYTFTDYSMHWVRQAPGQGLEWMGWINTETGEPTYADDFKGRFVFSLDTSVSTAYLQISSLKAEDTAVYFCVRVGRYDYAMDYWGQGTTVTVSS VL: DIQMTQSPSSLSASVGDRVTITCKASQDVYTAVAWYQQKPGKAPKLLINSASYRQTGVPSRFSGSGSGTDFTLTISSLQPEDFATYYCQQHYSTPPTFGGGTKVEIK	nM	7.91
2126-Hu-L16 (antibody, IgG1, V domains shown, IgG1/Cκ) VH: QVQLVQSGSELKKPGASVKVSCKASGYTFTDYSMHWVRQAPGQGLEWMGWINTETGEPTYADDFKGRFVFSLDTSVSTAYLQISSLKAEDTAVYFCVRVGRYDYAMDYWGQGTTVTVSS VL: DIQMTQSPSSLSASVGDRVTITCKASQDVYTAVAWYQQKPGKAPKLLINSASYRPTGVPSRFSGSGSGTDFTLTISSLQPEDFATYYCQQHYSTPPTFGGGTKVEIK	nM	4.38

Okay, now this binder:
Record summary for 2126-Hu-H32 (antibody, IgG1, V domains shown, IgG1/Cκ) VH: QVQLVQSGSELKKPGASVKVSCKASGYTFTDYSMHWVRQAPGQGLEWMGWINTETGSPTYADDFKGRFVFSLDTSVSTAYLQISSLKAEDTAVYFCVRVGRYDYAMDYWGQGTTVTVSS VL: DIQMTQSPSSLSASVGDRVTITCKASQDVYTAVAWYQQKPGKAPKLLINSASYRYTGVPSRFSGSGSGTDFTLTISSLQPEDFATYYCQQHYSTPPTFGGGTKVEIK : reported Kd = 8.96
